Provenance of the data: paper PMC3539207

- target: GR DBD R460D/D462R (Homo sapiens, UniProt P04150 417-506, R460D;D462R)
- Sequence (P04150 417-506 R460D/D462R): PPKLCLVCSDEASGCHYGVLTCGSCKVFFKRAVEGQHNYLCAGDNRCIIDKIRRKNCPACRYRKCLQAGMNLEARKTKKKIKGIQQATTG
- assay-explanation: fluorescence polarization
endpoint: Kd (nM)
Quick reminder: number only, in nM, skip the unit.

Data request: Looking for the measured Kd of (+)GRE (dsDNA) DNA 1: CCAGAACAGAGTGTTCTGA DNA 2: TCAGAACACTCTGTTCTGG , can you help?
Data returned: 80
